Reference source: patent US20210130455A1

- measurement target: T1, mouse AQP3 in cell lysate of HEK293T cells overexpressing mouse AQP3 and a myc-biotinylated tag (mouse, UniProt Q8R2N1 1-292, biotinylated tag (site not given))
- T1 construct: also called AQP3 (cell lysate); not shown: myc-biotinylated tag
- T1 sequence (looked up): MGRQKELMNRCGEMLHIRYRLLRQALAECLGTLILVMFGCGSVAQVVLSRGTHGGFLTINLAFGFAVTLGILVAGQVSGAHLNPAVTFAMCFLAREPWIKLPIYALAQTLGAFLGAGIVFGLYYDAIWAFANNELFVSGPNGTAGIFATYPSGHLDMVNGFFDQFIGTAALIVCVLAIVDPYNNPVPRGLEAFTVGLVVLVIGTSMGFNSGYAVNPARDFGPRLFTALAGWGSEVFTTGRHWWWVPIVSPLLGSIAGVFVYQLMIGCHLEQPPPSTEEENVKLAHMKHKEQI
- assay remarks: ELISA on lysate of HEK293T cells overexpressing mouse AQP3 and a myc-biotinylated tag
attribute measured: binding result

{"binder": "antibody E (antibody, mouse IgG2a, kappa, V domains shown, also called anti AQP3 mAb E) VH: EVKLLESGAELVRPGASVTLSCKASGYTFTDYEMHWVKQTPVHGLEWIGGIDPESGGTGYNQKFKGKAILTADKSSSTAYMELRSLTSEDSAVYFCTRSGYYGSPLLDYWGQGTTLTVSS VL: QIVLSQSPAIMSASLGERVTMTCTASSSVSSSYLHWYQQKPGSSPKLWIYSTSNLASGVPARFSGSGSGTSYSLTISSMEAEDAATYYCHQYHRSPPTFGAGTKLEIKR", "value reported": "binds"}
{"binder": "antibody A (antibody, mouse IgG2a, kappa, V domains shown, also called anti AQP3 mAb A) VH: QVQLQQPGAELVRPGASVTLSCKASGYTFTDYEMHWVKQTPVHGLEWIGGVDPETGGTGYNQKFRGKAILTADKSSSTAYMELRSLTSEDSAVYYCARHGGSFYAMDYWGQGTSVTVSS VL: DIVMTQSPKFMSTSVGDRVSITCKASQDVSTAVAWYQQKPGQSPKLLIYWASTRHTGVPDRFTGSGSGTDYTLTISSVQAEDLALYYCQQHYSTPPTFGGGTKLELKR", "value reported": "binds"}
